Data credit: patent US9856218B2

- MEASUREMENT TARGET: recombinant PRMT1 (Rattus norvegicus)
- Construct: purchased Millipore 14-474
- Sequence (Q63009 whole entry): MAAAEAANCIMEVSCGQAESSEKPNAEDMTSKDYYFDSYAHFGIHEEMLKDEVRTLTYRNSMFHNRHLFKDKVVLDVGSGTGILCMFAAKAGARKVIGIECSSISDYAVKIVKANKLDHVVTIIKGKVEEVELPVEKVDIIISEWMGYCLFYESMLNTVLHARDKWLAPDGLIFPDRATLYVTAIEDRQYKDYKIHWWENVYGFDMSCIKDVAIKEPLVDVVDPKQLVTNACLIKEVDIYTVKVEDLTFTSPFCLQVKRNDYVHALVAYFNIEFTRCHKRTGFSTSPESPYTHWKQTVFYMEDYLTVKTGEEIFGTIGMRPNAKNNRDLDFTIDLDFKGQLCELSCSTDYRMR
- TEST PROTOCOL: Histone methyltransferase assay, [3H]SAM
- Format: biochemical
- CONDITION PARAMETERS: 20 μM and above, FIG. 17A
QUANTITY MEASURED: inhibition of PRMT1 enzyme

1) CS(=O)(=O)c1ccc(/C=C\Cn2c3ccccc3c3ccccc32)cc1: non-specific inhibition
2) CCn1c2ccccc2c2cc(CNc3ccc(S(N)(=O)=O)cc3)ccc21: non-specific inhibition
3) CCn1c2ccccc2c2cc(CNCc3ccc(S(C)(=O)=O)cc3)ccc21: non-specific inhibition
4) CCn1c2ccccc2c2cc(CNCc3ccccc3OC)ccc21: non-specific inhibition

* * *

- TEST PROTOCOL: In vivo pharmacokinetics, plasma concentration
- Design: species or system Mouse
- CONDITION PARAMETERS: mouse, in vivo, iv, 5 mg/kg
QUANTITY MEASURED: concentration at 6 h (µM)

1. CCn1c2ccccc2c2cc(NC(=N)Nc3ccc(S(C)(=O)=O)cc3)ccc21 [HLCL-7]: 0.0762
2. CCn1c2ccccc2c2cc(CNCc3ccccc3OC)ccc21 [HLCL-61]: 0.0944

* * *

- TEST PROTOCOL: In vivo pharmacokinetics, plasma concentration
- Parameters: species or system Mouse
- CONDITION PARAMETERS: mouse, in vivo; IP 25 mg/kg, DMSO solution, 0.17 h; read-out: Mouse plasma concentration
QUANTITY MEASURED: concentration at 0.17 h (µM)

1. CCn1c2ccc(Br)cc2c2cc(CNCc3ccccc3OC)ccc21: 6.27

* * *

- TEST PROTOCOL: In vivo pharmacokinetics, plasma concentration
- Parameters: species or system Mouse
- CONDITION PARAMETERS: mouse, in vivo; IP 25 mg/kg, DMSO solution, 2.00 h; read-out: Mouse plasma concentration
QUANTITY MEASURED: concentration at 2 h (µM)

1. CCn1c2ccc(Br)cc2c2cc(CNCc3ccccc3OC)ccc21: 8.45

* * *

- TEST PROTOCOL: In vivo pharmacokinetics, plasma concentration
- Parameters: species or system Mouse
- CONDITION PARAMETERS: mouse, in vivo; IP 25 mg/kg, DMSO solution, 0.50 h; read-out: Mouse plasma concentration
QUANTITY MEASURED: concentration at 0.5 h (nM)

1. CCn1c2ccc(Br)cc2c2cc(CNCc3ccccc3OC)ccc21: 1660

* * *

- TEST PROTOCOL: In vivo pharmacokinetics, plasma concentration
- Parameters: species or system Mouse
- CONDITION PARAMETERS: mouse, in vivo, ip, 25 mg/kg
QUANTITY MEASURED: concentration at 0.5 h

1. CCn1c2ccccc2c2cc(CNCc3ccccc3OC)ccc21 [HLCL-61]: 1.83 µM
2. CCn1c2ccccc2c2cc(NC(=N)Nc3ccc(S(C)(=O)=O)cc3)ccc21 [HLCL-7]: 7.48 µM

* * *

- TEST PROTOCOL: In vivo pharmacokinetics, plasma concentration
- Design: species or system Mouse
- CONDITION PARAMETERS: mouse, in vivo, ip, 25 mg/kg
Item-by-item account of concentration at 4 h
QUANTITY MEASURED: concentration at 4 h (nM)

1) CCn1c2ccccc2c2cc(CNCc3ccccc3OC)ccc21: 712
2) CCn1c2ccccc2c2cc(NC(=N)Nc3ccc(S(C)(=O)=O)cc3)ccc21: 4130
